Sourced from PubChem BioAssay (NCI)

Property: growth inhibition; scope: individual compounds
- PROTOCOL_DESCRIPTION: NCI Yeast Anticancer Drug Screen. Data for the cln2 rad14 strain (AID 165);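 note: 0% = growth equal to vehicle treated cultures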
- CONDITION_CONTEXT: S. cerevisiae cln2 rad14 strain, at 50.0 µM, hits give high values
Compounds without any hit were thinned out: in the full panel of roughly 79,000, 15% have a hit.
Give your result in % as a bare value.

O=S(=O)(Cc1cccs1)c1ncc(Br)cn1	7.5

Enquiry: Item Cn1c(=O)c2c(nc3n(C)c(=O)c4ccccc4n23)n(C)c1=O : provide growth inhibition
Return: 7.3

Enquiry: Quick one: give measured growth inhibition for CC12CC3CC/C(=N\O)C(C1)C3(N1CCOCC1)C/C2=N/O (stereo unspecified)
Return: 0.3

Enquiry: Check the records and state growth inhibition for Nc1ccc(SCCC(=O)O)cc1
Return: 2.1

Enquiry: Specify reported growth inhibition for the compound shown: CCCCC(CCC)OC(=O)Nc1cccc2ccccc12 (stereo unspecified)
Return: -16.1

Enquiry: Consider the compound CCCCCCC(=O)C/C(CCC(=O)N(Cc1ccccc1)Cc1ccccc1)=N\NC(N)=O and give its recorded growth inhibition.
Return: 3.75

====

- PROTOCOL_DESCRIPTION: NCI Yeast Anticancer Drug Screen. Data for the sgs1 mgt1 strain (AID 161);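 note: 0% = growth of cultures given vehicle only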
- CONDITION_CONTEXT: S. cerevisiae sgs1 mgt1 strain, at 50.0 µM, hits give high values
About 79,000 compounds went through this panel and 15% of them were active in at least one assay; those are over-represented in the sample as a whole. Active and inactive are the calls of the source. Cut-off read from the data, not from the text of the source: active = growth inhibition above about 70%; inactive = the rest.
Property: growth inhibition; scope: individual compounds

Here is how some compounds turned out for growth inhibition.
CCC(=O)Oc1c(C(C)C)cccc1C(C)(C)C	-19.7% (inactive)
C[n+]1ccc2ccccc2c1C#N	-3.75% (inactive)
O=C1C=C(Nc2ccccc2C(=O)CC(=O)C(=O)Nc2cccc([N+](=O)[O-])c2)c2ccccc2C1=O	-7.2% (inactive)
N#CC1OC1c1ccccn1 (configuration not stated)	-12.3% (inactive)
CC1C2CC(C3(C)OCCO3)CCC2(C)CCC12OCCO2 (configuration not stated)	3.15% (inactive)
Cc1ccc(NC(=O)C(=O)Cc2cccc[n+]2[O-])cc1C	-4.1% (inactive)
CCc1ccc[n+](CCc2c[nH]c3ccccc23)c1	-10% (inactive)
Cc1onc(-c2ccccc2Cl)c1C(=O)NCC(=O)O	-3.5% (inactive)

Enquiry: Annotate the compound CC1(C)OC2CC3COC(=O)C3CC2O1 (configuration not stated) with its measured growth inhibition.
Return: -8.45% (inactive)

Enquiry: Please give measured growth inhibition of the following entry: COC(=O)c1c[nH]c(C=O)c1C
Return: -6.95% (inactive)

Enquiry: Identify measured growth inhibition corresponding to O=C1C(OC(=O)c2ccccc2)=C(c2ccc(O)cc2)C(=O)C(OC(=O)c2ccccc2)=C1c1ccc(O)cc1
Return: 5.55% (inactive)

Enquiry: State, in one line, measured growth inhibition of CC1(C)CN(Cc2ccccc2)C(C)(C)CN1
Return: -6.4% (inactive)

Enquiry: Fill in reported growth inhibition for this entry: Cc1cc(C(N)=O)c(C(N)=O)c(=O)[nH]1
Return: 0% (inactive)

Enquiry: In one line, give reported growth inhibition of the entry O=C(CC(=O)c1ccccc1)Cc1ccccc1.O=C(CC(=O)c1ccccc1)Cc1ccccc1.[Cu] .
Return: 55.6% (inactive)

Enquiry: Retrieve growth inhibition measured for CC(=O)Nc1ccc(/C=C2\SC(=S)N(C=C(C#N)C#N)C2=O)cc1 and print it.
Return: -10.4% (inactive)

Enquiry: Given the compound CCOC(=O)/C=C(\Nc1ccc(C(c2ccccc2)(c2ccccc2)c2ccccc2)cc1)C(=O)OCC , write its reported growth inhibition.
Return: 32% (inactive)

Enquiry: Let me know recorded growth inhibition for C/C(CC(=O)Nc1ccc(C)cc1)=N\NC(N)=S , thanks.
Return: 3.45% (inactive)

Enquiry: Identify measured growth inhibition corresponding to CN(CCCN)CCCN
Return: -32.6% (inactive)

Enquiry: Supply reported growth inhibition belonging to this compound: CC(=O)n1c2ccccc2c2nc3ccccc3nc21
Return: 11.9% (inactive)

Enquiry: Note down growth inhibition recorded for O=C1NC2Cc3ccccc3C(C2)O1 (configuration not stated)
Return: 1.85% (inactive)
